Tested on: OVCAR-3 ovarian
Test: NCI-60 one-dose screen, 48 h
Conditions: 10 µM unless noted
Compounds without any hit were thinned out: in the full panel of roughly 83,000, 20% have a hit. Active and inactive are the calls of the source. The calls were made as follows: active = growth percent below 10; inactive = the rest.
Please answer using one outcome listed in Y for active, N for inactive

COc1cccc(C2CC(=O)Nc3c2c(C)nn3-c2nc3ccccc3[nH]2)c1OC (stereo not given) : N
O=C(Nc1ccc(F)cc1)c1cc([N+](=O)[O-])ccc1O : N
C=CCc1cc(Cl)cc2c(OC(C)=O)c(C(C)=O)c(-c3ccccc3)nc12 : N

Query string: Please share the test call associated with CC[C@H](C)[C@@H]1NC(=O)[C@H]([C@@H](C)O)NC(=O)C(Cc2ccccc2)NC(=O)[C@@H]2CCCN2C(=O)C(C(C)C)NC(=O)C(Cc2ccccc2)NC(=O)CNC(=O)[C@@H]2CCCN2C1=O (stereo not given in full) .
Result string: N

Query string: Please share the test call associated with O=C(c1ccncc1)N1N=C(c2ccc(Cl)cc2)CC1c1c[nH]c2ccccc12 (stereo not given) .
Result string: N

Query string: Please share the test call associated with `CCO/C=N/NC(=O)c1ccncc1` .
Result string: N

Query string: Please share the test call associated with `COc1ccc(-c2cn[nH]c2-c2cc(OC)c3c(c2)OCO3)cc1` .
Result string: Y

Query string: Please share the test call associated with `O=S(=O)(NCCCNc1nccc(-c2c(-c3ccc(F)c(O)c3)nc3sccn23)n1)c1ccc(Cl)cc1` .
Result string: N

Query string: Please share the test call associated with `COc1ccc(/C=C/C(=O)c2cccc(B(O)O)c2)cc1O` .
Result string: Y

Query string: Please share the test call associated with `OCc1c(-c2ccccc2)nc2sccn12` .
Result string: N
